Target: Trace amine-associated receptor 1 (Homo sapiens)
Assay: blockers of beta-PEA-driven TAAR1 calcium signal – Fluo-8 calcium fluorescence, CHO RD-HGA16 cells, primary screen (AID 624466);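 also: 0% = DMSO plus EC80 beta-PEA response and 100% = DMSO alone without agonist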
Details: CHO RD-HGA16 TAAR1, Fluo-8 calcium fluorescence, antagonist; at 3 µM; active compounds read high
Out of some 360,000 compounds screened, about 5,400 (1.5%) were called active. The sample as a whole holds a higher share of actives than the screen did.
measurement-name: inhibition (%)

molecule="COc1ccc(C(C(=O)NCc2ccccc2)N(Cc2cccs2)C(=O)c2cnccn2)cc1 (stereo not given)" meas_value=53.3
molecule=CCOC(=O)N1CCN(C(=O)C[C@@H]2C[C@@]3(C(=O)OC)CC(C)(C)CC=C3N(Cc3ccco3)C2=O)CC1 meas_value=-19
molecule="C=CCN=C1NC(c2cccc(C(F)(F)F)c2)C(C(=O)OC)=C(C)N1C (stereo not given)" meas_value=5.15
molecule="COc1ccc(OCC(O)CNC(=O)Nc2ccc(Cl)cc2)cc1 (stereo not given)" meas_value=12.9
molecule=COC(=O)/C=C\C(=O)Nc1cccc([N+](=O)[O-])c1 meas_value=-1.13
molecule="OC(COc1ccccc1)CN1CCN(c2cccc(Cl)c2)CC1 (stereo not given)" meas_value=-33.9
molecule="OC(CNCCc1ccc(Cl)cc1Cl)COc1ccccc1 (stereo not given)" meas_value=52.8
molecule=Cc1ccc(/C=C/C(=O)Nc2ccc([N+](=O)[O-])c(NC(=O)/C=C/c3ccc(C)o3)c2)o1 meas_value=48.8
molecule="CC1(C(=O)NCc2ccccc2)CN(S(C)(=O)=O)CC(=O)N1CC(F)(F)F (stereo not given)" meas_value=-8.96
molecule="CCCCCCCC[n+]1cccc(C(=O)N2c3c(nc(N)[nH]c3=O)NC(C)C2C)c1 (stereo not given)" meas_value=-7.7
